Origin of values: paper PMC9321647

assay: Spectrophotometric pH titrations of ligands (protonation constants, pKa); assay type: physicochemical; conditions: 298 K, HypSpec, spectrophotometric data
Below, each of the compounds is paired with its reported logβ011 overall protonation constant value.

// solved cases for logβ011 overall protonation constant follow
> print(dat)
                                   compound      value
1  O=C(/C=C/c1ccc(O)cc1)C(CCCN1C(=O)c2ccccc2C1=O)C(=O)/C=C/c1ccc(O)cc1 [Compound 3]  10.88 (2)
2  COc1cc(/C=C/C(=O)C(CCC(=O)O)C(=O)/C=C/c2ccc(O)c(OC)c2)ccc1O [Compound 7]  12.22 (2)
3  COc1cc(/C=C/C(=O)C(CCCN2C(=O)c3ccccc3C2=O)C(=O)/C=C/c2ccc(O)c(OC)c2)ccc1O [Compound 4]  10.78 (4)
4  O=C(O)CCC(C(=O)/C=C/c1ccc(O)cc1)C(=O)/C=C/c1ccc(O)cc1 [Compound 6]  11.42 (2)

Problem: Fill in the blank: the reported logβ011 overall protonation constant of COc1cc(/C=C/C(O)=C/C(C)=O)ccc1OCCCBr [Compound 2] is ____.
Result: 10.903 (8)
